assay: label from the status in PepcDB records;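 note: failed if final PepcDB status was selected cloned or expressed and not failed if soluble or beyond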
measure: protein production

Consider the following illustrative entries.
[[record]]
ordered_residues = "MGNFLRRSCAVHPASGDGGRGRHVDEPPQQRPSSVRIKVRMRRDQLEELLYLARRGDQSDDGGKIGFLILKECMEGRLPASVLGSGGDVRSQRRGSYMVYRRLGSITEE"
value_measured = "failed"

[[record]]
ordered_residues = "MRVEALGKVAPLPQAQTPVSLNEASLEELMALPGIGPVLARRIVEGRPYARVEDLLKVKGIGPATLERLRPYLRP"
value_measured = "not failed"

[[record]]
ordered_residues = "MSDFNLVGVIRVMPTDPDVNLDELEEKLKKVIPEKYGLAKVEREPIAFGLVALKFYVLGRDEEGYSFDEVAEKFEEVENVESAEVETVSRI"
value_measured = "not failed"

[[record]]
ordered_residues = "MNLDHLYPFGFRSTLFDRLTPEYEDLKGLSIHQLRESVARDLEDLLNSRVAKMDDVLVNYPLARQSILQFGIIDFVGLSTANPMDREKICQSIEQSIAAHEPRLKQVKVEMLLDGHNMGALCLSIQAYLNIHPLYEPVVFDALLKPTTQQYVISAQT"
value_measured = "failed"

[[record]]
ordered_residues = "MKKQELIHLHGLLAQVQNHYEAESGTEVDHDEYEELGVKPTSIHKSKTDHKAAVFAIADGIASEMADETKEPVSAAADLEHHHHHH"
value_measured = "not failed"


Given the sequence "MDEMRPPPRSRTIYLLPNLFTTAGLFSGFYAIIAAANGQFVQAAMAVFVAAVMDGLDGRVARLTNTSSEFGVQYDSLADLVSFGMAPALVMYHWSLSALKYDSSVMGRVGWSAAFLYAACAALRLARFNTQVGVVDKRWFIGLASPAAAGLMMSFVWAFADDSLGFDGEQLRYVALAVTVVSALLMVSRIRFWSFKGGARGPRADRVPFLALAIATVVIALLVIDLARSLLVIGVLYALSGPLMWLWRRWRRVPELP" , what is its reported protein production?
failed

Given the sequence "MEVDEDIELQKHQEQQSRKLQRFSEDNTGLMRNWNNPSSRIIRVSRASGGKDRHSKVLTSKGLRDRRIRLSVATAIQFYDLQDRLGFDQPSKAVEWLINAASDSITDLPLLNTNFDHLDQNQNQTKSACSSGTSESSLLSLSRTEIRGKARERARERTAKDRDKDLQNAHSSFTQLLTGGFDQQPSNRNWTGGSDCFNPVQLQIPNSSSQEPMNHPFSFVPDYNFGISSSSSAINGGYSSRGTLQSNSQSLFLNNNNNITQRSSISSSSSSSSPMDSQSISFFMATPPPLDHHNHQLPETFDGRLYLYYGEGNRSSDDKAKERR" , what is its reported protein production?
failed

Given the sequence "MQYLIVKYSHQIFVTITILVFNIRFFLLWKNPEKPLAGFWKALPHLNDTMLLFTGLWLMKITHFSPFNAPWLGTKILLLLAYIALGMMMMRARPRSTKFYTVYLLAMCCVACIVYLAKTKVLPF" , what is its reported protein production?
failed

Given the sequence "MTDEVSVLFVDFLLEWLEMMRTRVRETTYASYNSGIRQSIIPYFMDKKLTLTDIEENPKYLQDFYQHELSKGLSPNSVLRRHANIRKALQHAFHLGLIKSNPADRIERPKKQDYTALEHHHHHH" , what is its reported protein production?
not failed

Given the sequence "MNMQKLRIELGEETNDELYDLLLLADPSKDIVDEYLERGECYTAWAGDELAGVYVLLKTRPQTVEIVNIAVKESLQKKGFGKQLVLDAIEKAKKLGADTIEIGTGNSSIHQLSLYQKCGFRIQAIDHDFFLRHYDEDIFENGIQCRDMVRLYLDLLEHHHHHH" , what is its reported protein production?
not failed

---

assay: label from the status in PepcDB records
measure: protein production

[[record]]
ordered_residues = "MTPRRHDNDYERRKWRQVAGHFGMGAAFGALFAGIVLFNNYFGLSSVIATSEAPTLVRIIFVVGVAGSFAFMAAITGFLFLVHED"
value_measured = "failed"

[[record]]
ordered_residues = "MSDHEVTGGVSLKERVAIVLVEPQSPGNVGMVCRAMKNMGLGELRIVKGCRLDHPEALKFAVSARDLLERARVFESLEDALSDTELSVATTRRHGKYRQEIFSPKEIVSKFAANLAGNRAALVFGREDNGLTTDELSLCRWHATIPSSEEYGSLNLAQAVMVFCYELFTSLGSRTVGGEDRPLAGSAETEPLFEHMERTLMRIGYLNPQNPAHLMRSLRRIFARSELDSREVAILRGMMTQIDWAADQFKGKKGA"
value_measured = "failed"

[[record]]
ordered_residues = "MNELTQSDNYQLLNRELAAPDPWGLDANPFERERHTQMLRLALAQGSISSALEVGCAAGAFTVQLAPHCKRLTVIDVVPQAIERSRRRIRGSPHISWIVSDVQQFSPDERFDLIVVAEVLYYIGGIAEMRGAVRNLVRMLAPDGYLVFGSARDANCRRWGHVAGAETILGMLNETLLEVERLECRGESVNEDCLLACFRNPFSAS"
value_measured = "failed"


---

assay: label from the status in PepcDB records
measure: protein production

Consider the following illustrative entries.
[[record]]
ordered_residues = "MTFSSKLKSFCSRYFSSHEKDKYKALMKQKLLNPLSSSSPNYDEMIQENFKPHWIIGIDPNLSGALAVLKFDDKGSCSAQVNPY"
value_measured = "failed"

[[record]]
ordered_residues = "MAENAWVRVCALQELPELGARVLDVEGLPPIAIFRTASDQVFALRDRCPHKGGPLSQGIVAGETVTCPLHGWAIALQSGQACAPDVGCAPRYPVKVEAGAVWIVLQPVLQADAVAEPAALEHHHHHH"
value_measured = "failed"

[[record]]
ordered_residues = "MITFIIHSVSAETASESLLSKLAEAKDYLRIQPSVSSRILKKHLANIGQLTINDQLSWHQNLLRASIALNDLNQVEKTVKVMLSYPELEKKTDKFVSLLSSLGIFLRRTGHPNESILLFNCGLEQPIKNGKQKISLLISKGSSLSSLNKYSQAKTTYAQALQLAKQQNSEVLISAIYNTLGIMALKQGNYTLAKEYLVNALQLSQKISRRSGQIVAGLQLLRLSILSDEPMLYDRLHYRISRLTLVSESEVRHAYLFWLEKAHKASKGNKLSAQEQDELLSKLDQIKPISVSLYNQLVETLAEPMGITSLALINESSEYQGDLLNNIHQCKNIE"
value_measured = "failed"

[[record]]
ordered_residues = "MDDRTEYDVYTDGSYVNGQYAWAYAFVKDGKVHYEDADVGKNPAAATMRNVAGEIAAALYAVKKASQLGVKIRILHDYAGIAFWATGEWKAKNEFTQAYAKLMNQYRGIYSFEKVKAHSGNEFNDYVDMKAKSALGIRDLEHHHHHH"
value_measured = "not failed"

[[record]]
ordered_residues = "MDCCTENACSKPDDDILDIPLDDPGANAAAAKIQASFRGHMARKKIKSGERGRKGPGPGGPGGAGVARGGAGGGPSGD"
value_measured = "failed"

[[record]]
ordered_residues = "MDSVVSDVSDLVEPDEELKAWQTDRTRAPIATKIVVAGGFGAGKTTLVTAVSEITPLQTEALMTQASEDTDDLTGTPDKLTTTVAMDFGRITLDDDLVLYLFGTPGQQRFWFMWDDLVRGAIGAVVLADTRRLSDCFPALDYFESCGLPYVVAVNHFDGSEKFEPEDVREALTVPAHIPVMIMDARRRISVIETLLALVGHALEVSPELEHHHHHH"
value_measured = "not failed"

[[record]]
ordered_residues = "MLEACTKCGTCAEACTMYLGSGRKKIYSPVYRSDMLRKIYKKHFTLTGKLFGPLIGAKDPTEDDINALAESAYRCTVCRRCALACPFGLDNGLITRETRKIFADLGILEHHHHHH"
value_measured = "failed"

[[record]]
ordered_residues = "MSLIPKFREFDRERHRTDYQKGMSYAEQQDFDMGFTIWFDHIEDLDLIEKDGTINRIVMMSTGLKDKNVKEIYESDIVRNLYGELYVVEWLDGSFVLTEFYNGGYDHYIIDSSTEYEVLGNIYENPELLEDDNHASNEGHHHHHH"
value_measured = "not failed"

[[record]]
ordered_residues = "MLTTQGVPEFCYITIIGLILFMIFKEVLSQSKFWRKDLESSSNMVILPLLISFSAIVAYKIAEIL"
value_measured = "failed"

[[record]]
ordered_residues = "MDLVKIDETLDDLQIKDIHIIQKKEGFRFGVDAVLLANYAKVKSNQTVIDLCSGTGIIPFIIQGKKSPRHITGIEIQEDMVQMANRTVLYNKFQEKIKFINEDIKNLAELKKLERVDVVTVNPPYKLRNSGIVNEFDKNAIARHEICCTLEDVIKAARTLLKDNGRLFMVHRPERLADILCLMREYKIEPKSIKMVYPSVNKAPNIVLIEGQRDGGAFLKWEKSLYIHKENGEYTEELNEIYGR"
value_measured = "failed"


Given the sequence "MAQTEKLTDYVNPFVGTDGYGNVYPGAQIPFGGIQISPDTDSRFYDAASGYKYNHLTLMGFSLTHLSGTGIPDLGDFLFIPGTGEMKLEPGTHEDPDQGYRSRYSHDKEWASPNYYAVELADYGVKAEMTSGVRSGMFRFTYPESDNAFIMIDMNHTLWQSCEWSNLRMINDSTITGYKLVKGWGPERHVYFTLEHHHHHH" , what is its reported protein production?
failed
